System: porcine pancreatic lipase type II (PPL type II)
Condition: pH 6.5
Property name: with enzyme, 24 h, 35° C. (%)
Answer in %, number only, no unit symbol.

# value of with enzyme, 24 h, 35° C., porcine pancreatic lipase type II (PPL type II), item CC(O)CC(=O)OC(C)CC(=O)O (stereo not shown) [3-BHB dimer, dimer of 3-hydroxybutyrate] = 0.71

----------
Tested on: Panzytrat® 40,000 (pancreatin)
Test details: Cleavage experiments with and without Panzytrat 40,000 in FaSSIF medium (simulates the intestinal tract, pH 6.5)
Condition: the 13th table; FaSSIF medium pH 6.5, without Panzytrat, 24 h, 35° C.; in %
Under this convention, t denotes without Panzytrat 24 h, 35° C. strictly below 0.05 and f denotes without Panzytrat 24 h, 35° C. at or above 0.05.

Some solved cases for reference:
CC(O)CC(=O)OCC(COC(=O)CC(C)O)OC(=O)CC(C)O (stereo not drawn) [3-BHB-TG, triglyceride of 3-hydroxybutyric acid] = f
CC(O)CC(=O)OC(C)CC(=O)OCC(CO)OC(=O)CC(C)O (stereo not drawn) = f
CC(O)CC(=O)OC(C)CC(=O)OCC(O)CO (stereo not drawn) = f
CC(O)CC(=O)OC(C)CC(=O)O (stereo not drawn) [3-BHB-dimer-FS, dimer of 3-hydroxybutyric acid] = t
CCOC(=O)CC(C)O (stereo not drawn) [3-BHB-ethyl, 3-hydroxybutyric acid ethyl ester] = f
CC(O)CC(=O)OCC(O)CO (stereo not drawn) [3-BHB-MG, monoglyceride of 3-hydroxybutyric acid] = f

Query string: In the record for CC(O)CC(=O)O (stereo not drawn) [3-BHB-FS, 3-hydroxybutyric acid] , is without Panzytrat 24 h, 35° C. less than 0.05?
Result string: t

Query string: In the record for CC(O)CC(=O)OCC(CO)OC(=O)CC(C)O (stereo not drawn) [3-BHB-DG, diglyceride of 3-hydroxybutyric acid] , is without Panzytrat 24 h, 35° C. less than 0.05?
Result string: f
